- Tested on: Saccharomyces cerevisiae BY4741 SeMeCo community
- Assay Remarks: z-score of subpopulation abundance vs DMSO median, subpopulation auxotrophic for M; higher = larger share of this subpopulation than in DMSO controls
- Test Conditions: 10 µM; 24 h; SM minimal medium; subpopulation (auxotrophy): M
Counter-ions that a name gives are not always drawn.
// class 0 strictly below 0.2 in z-score of subpopulation abundance; class 1 otherwise

INSERT INTO results (molecule, label_class) VALUES
  ('COc1cc(/C=C/C(=O)N2CCN(CC(=O)N3CCCC3)CC2)cc(OC)c1OC [Cinepazide maleate]', 'class 0'),
  ('CN1CCOC(c2ccccc2)c2ccccc2C1 (centres undefined) [Nefopam HCl]', 'class 0'),
  ('Cc1nc(C)c(Cl)c(O)c1Cl [Clopidol]', 'class 0'),
  ('CC[C@@H]([C@H](C)O)n1ncn(-c2ccc(N3CCN(c4ccc(OC[C@@H]5CO[C@@](Cn6cncn6)(c6ccc(F)cc6F)C5)cc4)CC3)cc2)c1=O [Posaconazole]', 'class 0'),
  ('NC(=O)N/N=C/c1ccc([N+](=O)[O-])o1 [Nitrofural]', 'class 1'),
  ('O=C(c1ccc(F)cc1)C1CCN(CCn2c(=O)[nH]c3ccccc3c2=O)CC1 [Ketanserin]', 'class 0'),
  ('Cc1c(S(=O)(=O)O)oc2c1C(=O)C(=O)c1c-2ccc2c1CCCC2(C)C [Tanshinone IIA sulfonate (sodium)]', 'class 1'),
  ('CCCCCC(=O)O[C@]1(C(C)=O)CC[C@H]2[C@@H]3CCC4=CC(=O)CC[C@]4(C)[C@H]3CC[C@@]21C [Hydroxyprogesterone caproate]', 'class 1'),
  ('OC(c1ccccc1)(c1ccccc1)C12CC[N+](CCOCc3ccccc3)(CC1)CC2 [Umeclidinium bromide]', 'class 0'),
  ('COc1cc2c(cc1OC)-c1cc3ccc(OC)c(OC)c3c[n+]1CC2 [Palmatine]', 'class 0'),
  ('Clc1ccc(COC(Cn2ccnc2)c2ccc(Cl)cc2Cl)c(Cl)c1 (centres undefined) [Miconazole Nitrate]', 'class 0'),
  ('Nc1nc2[nH]cc(CCc3ccc(C(=O)N[C@@H](CCC(=O)O)C(=O)O)cc3)c2c(=O)[nH]1 [Pemetrexed Disodium Hydrate]', 'class 0'),
  ('CCOC(=O)c1ccc(O)cc1 [Ethylparaben]', 'class 0'),
  ('C[C@@H](O)[C@H]1C(=O)N2C(C(=O)O)=C(S[C@@H]3CN[C@H](C(=O)Nc4cccc(C(=O)O)c4)C3)[C@H](C)[C@H]12 [Ertapenem sodium]', 'class 0'),
  ('OCc1ccccc1O[C@@H]1O[C@H](CO)[C@@H](O)[C@H](O)[C@H]1O [Salicin]', 'class 0'),
  ('CC[C@H]1OC(=O)C[C@@H](O)[C@H](C)[C@@H](O[C@@H]2O[C@H](C)[C@@H](O)[C@H](N(C)C)[C@H]2O)[C@@H](CCN2C[C@H](C)C[C@H](C)C2)C[C@@H](C)C(=O)/C=C/C(C)=C/[C@@H]1CO[C@@H]1O[C@H](C)[C@@H](O)[C@@H](OC)[C@H]1OC [Tilmicosin phosphate]', 'class 0'),
  ('CC(=O)[C@H]1CC[C@H]2[C@@H]3CCC4=CC(=O)CC[C@]4(C)[C@H]3CC[C@]12C [Progesterone]', 'class 1'),
  ('CCCC1CC(C(=O)NC(C(C)Cl)C2OC(SC)C(O)C(O)C2O)N(C)C1 (centres undefined) [Clindamycin alcoholate]', 'class 1'),
  ('CN1[C@@H]2CC[C@H]1C[C@@H](OC(=O)c1c[nH]c3ccccc13)C2 [Tropisetron HCl]', 'class 1'),
  ('COc1ccccc1N1CCN(CCCNc2cc(=O)n(C)c(=O)n2C)CC1 [Urapidil HCl]', 'class 0'),
  ('CC(C(=O)O)c1ccc2c(c1)CC(=O)c1ccccc1S2 (centres undefined) [Zaltoprofen]', 'class 1'),
  ('CNCC[C@H](Oc1cccc2ccccc12)c1cccs1 [Duloxetine HCl]', 'class 1'),
  ('CC(C)c1c(C(=O)Nc2ccccc2)c(-c2ccccc2)c(-c2ccc(F)cc2)n1CC[C@@H](O)C[C@@H](O)CC(=O)O [Atorvastatin Calcium]', 'class 1');

====

- Test system: Saccharomyces cerevisiae BY4741 SeMeCo community
- Assay Remarks: z-score of prototroph abundance vs DMSO median; higher = larger share of this subpopulation than in DMSO controls
- Test Conditions: 10 µM; 24 h; SM minimal medium; subpopulation (auxotrophy): Prototroph
Counter-ions that a name gives are not always drawn.
Would you mind sorting the entries by z-score of prototroph abundance according to these classes? label 0 = under -0.3, label 1 = from -0.3 up to 0.6, label 2 = 0.6 and over

INSERT INTO measurements (molecule, study_target, label_class) VALUES
  ('C[C@]12CCC(=O)C=C1[C@@H]1C[C@@H]1[C@H]1[C@@H]3[C@@H]4C[C@@H]4[C@@]4(CCC(=O)O4)[C@@]3(C)CC[C@@H]12', 'Saccharomyces cerevisiae BY4741 SeMeCo community', 'label 1'),
  ('OC(Cn1cncn1)(Cn1cncn1)c1ccc(F)cc1F', 'Saccharomyces cerevisiae BY4741 SeMeCo community', 'label 2'),
  ('CC(C)(C)C1CCC(CC2=C(O)c3ccccc3C(=O)C2=O)CC1 (stereo not given)', 'Saccharomyces cerevisiae BY4741 SeMeCo community', 'label 0'),
  ('CCOC(=O)C1=C(C)NC(C)=C(C(=O)OCC)C1c1ccccc1/C=C/C(=O)OC(C)(C)C', 'Saccharomyces cerevisiae BY4741 SeMeCo community', 'label 1'),
  ('NC(=N\CCCCCC/N=C(N)/N=C(\N)Nc1ccc(Cl)cc1)/N=C(\N)Nc1ccc(Cl)cc1 [Chlorhexidine diacetate]', 'Saccharomyces cerevisiae BY4741 SeMeCo community', 'label 2'),
  ('CCc1cccc2c3c([nH]c12)C(CC)(CC(=O)O)OCC3 (stereo not given)', 'Saccharomyces cerevisiae BY4741 SeMeCo community', 'label 2'),
  ('C/C=C1\[C@H]2C=C(C)C[C@]1(N)c1ccc(=O)[nH]c1C2 [(-)-Huperzine A (HupA)]', 'Saccharomyces cerevisiae BY4741 SeMeCo community', 'label 1'),
  ('O=C(O)c1ccccc1O', 'Saccharomyces cerevisiae BY4741 SeMeCo community', 'label 2'),
  ('Clc1ccc2c(N3CCN(CCCN4CCN(c5ccnc6cc(Cl)ccc56)CC4)CC3)ccnc2c1 [Piperaquine phosphate]', 'Saccharomyces cerevisiae BY4741 SeMeCo community', 'label 0'),
  ('NCC[C@H](O)C(=O)N[C@@H]1C[C@H](N)[C@@H](O[C@H]2O[C@H](CN)[C@@H](O)[C@H](O)[C@H]2O)[C@H](O)[C@H]1O[C@H]1O[C@H](CO)[C@@H](O)[C@H](N)[C@H]1O [Amikacin disulfate]', 'Saccharomyces cerevisiae BY4741 SeMeCo community', 'label 1'),
  ('Cc1cc(-n2c(=O)[nH]c(=O)n(C)c2=O)ccc1Oc1ccc(SC(F)(F)F)cc1', 'Saccharomyces cerevisiae BY4741 SeMeCo community', 'label 1'),
  ('C[C@@H](O)[C@H]1C(=O)N2C(C(=O)O)=C(S[C@@H]3CN[C@H](C(=O)N(C)C)C3)[C@H](C)[C@H]12 [Meropenem]', 'Saccharomyces cerevisiae BY4741 SeMeCo community', 'label 1'),
  ('Cc1ccccc1OCC(O)CO (stereo not given)', 'Saccharomyces cerevisiae BY4741 SeMeCo community', 'label 2'),
  ('C[C@H]1[C@H](NC(=O)/C(=N\OC(C)(C)C(=O)O)c2csc(N)n2)C(=O)N1S(=O)(=O)O', 'Saccharomyces cerevisiae BY4741 SeMeCo community', 'label 0'),
  ('CC(=O)[C@H]1CC[C@H]2[C@@H]3CC=C4C[C@@H](O)CC[C@]4(C)[C@H]3CC[C@]12C', 'Saccharomyces cerevisiae BY4741 SeMeCo community', 'label 1'),
  ('Nc1c(Br)cc(Br)cc1CN[C@H]1CC[C@H](O)CC1 [Ambroxol HCl]', 'Saccharomyces cerevisiae BY4741 SeMeCo community', 'label 2'),
  ('CCN(CC)CC#CCOC(=O)C(O)(c1ccccc1)C1CCCCC1 (stereo not given)', 'Saccharomyces cerevisiae BY4741 SeMeCo community', 'label 1'),
  ('CNCC[C@H](Oc1cccc2ccccc12)c1cccs1 [Duloxetine HCl]', 'Saccharomyces cerevisiae BY4741 SeMeCo community', 'label 2'),
  ('Nc1nc2ccc(OC(F)(F)F)cc2s1', 'Saccharomyces cerevisiae BY4741 SeMeCo community', 'label 2'),
  ('C[n+]1ccccc1/C=N/O [Pralidoxime chloride]', 'Saccharomyces cerevisiae BY4741 SeMeCo community', 'label 1'),
  ('CCN(CC)CCNC(=O)c1cc(S(C)(=O)=O)ccc1OC [Tiapride Hydrochloride]', 'Saccharomyces cerevisiae BY4741 SeMeCo community', 'label 0'),
  ('Cc1ccc(S(=O)(=O)NC(=O)NN2CC3CCCC3C2)cc1 (stereo not given) [Gliclazide]', 'Saccharomyces cerevisiae BY4741 SeMeCo community', 'label 1'),
  ('COc1cc([C@@H]2c3cc4c(cc3[C@@H](O[C@@H]3O[C@@H]5CO[C@@H](c6cccs6)O[C@H]5[C@H](O)[C@H]3O)[C@H]3COC(=O)[C@H]23)OCO4)cc(OC)c1O [Teniposide]', 'Saccharomyces cerevisiae BY4741 SeMeCo community', 'label 0'),
  ('COc1ccc2cc([C@H](C)C(=O)O)ccc2c1', 'Saccharomyces cerevisiae BY4741 SeMeCo community', 'label 2'),
  ('CC(C)n1c(/C=C/C(O)CC(O)CC(=O)O)c(-c2ccc(F)cc2)c2ccccc21 (stereo not given) [Fluvastatin Sodium]', 'Saccharomyces cerevisiae BY4741 SeMeCo community', 'label 0'),
  ('CC(C)N1CCN(c2ccc(OCC3COC(Cn4cncn4)(c4ccc(Cl)cc4Cl)O3)cc2)CC1 (stereo not given)', 'Saccharomyces cerevisiae BY4741 SeMeCo community', 'label 2'),
  ('CCCCC(=O)O[C@H]1CC[C@H]2[C@@H]3CCc4cc(O)ccc4[C@H]3CC[C@]12C [Estradiol valerate]', 'Saccharomyces cerevisiae BY4741 SeMeCo community', 'label 1'),
  ('O=c1cc(-c2ccc(O)c(O)c2)oc2cc(O)cc(O)c12', 'Saccharomyces cerevisiae BY4741 SeMeCo community', 'label 0'),
  ('COc1nc2ccc(Br)cc2cc1[C@@H](c1ccccc1)[C@@](O)(CCN(C)C)c1cccc2ccccc12 [Bedaquiline fumarate]', 'Saccharomyces cerevisiae BY4741 SeMeCo community', 'label 0');
